# TEST: qHTS of pediatric cancer cell lines to identify multiple opportunities for drug repurposing: Primary screen for OHS-50 cells (AID 1347103); note: nearly all actives have a fitted effect of over 40% in size
# CONDITION PARAMETERS: OHS-50 osteosarcoma viability, CellTiter-Glo luminescence, 48 h; series mostly up to 57.3 µM
# Experimental: Drug repurposing or repositioning has been offered as a strategy for drug development in oncology programs. […] [1] Shen, M et al. Quantitative high-throughput phenotypic screening of pediatric cancer cell lines identifies multiple opportunities for drug repurposing. […] Cells were assayed in growth media at a density of 500-1,000 cells/well. […] After a 15 min incubation at room temperature, samples were analyzed for luminescence intensity using a ViewLux High-throughput CCD imager equipped with clear filters.
Records with an inconclusive call do not appear. Activity calls are given as the source filed them. Calls come from the whole dose curve; as a rule, active = well fitted cell-killing curve with a large enough effect; inconclusive = small, poorly fitted or top-dose-only effect; inactive = no such curve, though single readings can be large or run the other way.
Labels: YES (active), NO (inactive)

1. O=c1[nH]c(=O)n([C@H]2C[C@@H](O)[C@@H](CO)O2)cc1C(F)(F)F: YES
2. NS(=O)(=O)c1cc(Cl)c(Cl)c(S(N)(=O)=O)c1: NO
3. CC(C)(O)CC(=O)NCCn1ccc2ncnc(Nc3ccc(Oc4cccc(C(F)(F)F)c4)c(Cl)c3)c21: YES
4. O=C(O)c1nc(=O)[nH]c(=O)[nH]1: NO
5. Cc1nc(NC(=O)N2CCC[C@@H]2C(N)=O)sc1-c1csc(C(C)(C)C)n1: YES
6. OC[C@H]1O[C@@H](OCCc2ccc(O)cc2)[C@H](O)[C@@H](O)[C@H]1O: NO
7. CNc1nc(-c2ccc3c(N)n[nH]c3c2)cc(N2C[C@@H](C(=O)NC3CCCCC3)CC[C@@H]2C)n1: YES
8. NC(=O)c1noc([C@H](CCCC2CCCCC2)CC(=O)NO)n1: YES
9. OC[C@H]1O[C@@H](Oc2ccc(O)cc2)[C@H](O)[C@@H](O)[C@H]1O: NO
10. C[C@H]1COC2=C1C(=O)C(=O)c1c2ccc2c1CCCC2(C)C: NO
